# tgt: human 5-HT2A receptor (Homo sapiens, UniProt P28223)
# Construct: expressed in transfected cells; host or cells: CHO cells (membrane preparation)
# Sequence (P28223 whole entry): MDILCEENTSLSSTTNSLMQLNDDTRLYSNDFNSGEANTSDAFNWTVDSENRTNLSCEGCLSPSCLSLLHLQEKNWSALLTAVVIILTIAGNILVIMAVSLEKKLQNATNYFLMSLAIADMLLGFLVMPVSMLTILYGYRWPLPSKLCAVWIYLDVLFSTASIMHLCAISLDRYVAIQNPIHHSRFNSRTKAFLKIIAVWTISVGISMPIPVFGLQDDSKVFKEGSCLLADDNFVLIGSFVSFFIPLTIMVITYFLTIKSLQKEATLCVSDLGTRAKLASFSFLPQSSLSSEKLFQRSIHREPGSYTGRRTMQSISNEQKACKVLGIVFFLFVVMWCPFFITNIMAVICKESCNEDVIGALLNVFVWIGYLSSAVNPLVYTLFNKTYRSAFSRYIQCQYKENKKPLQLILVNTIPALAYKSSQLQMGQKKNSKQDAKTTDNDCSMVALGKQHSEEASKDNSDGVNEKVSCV
# protocol.text: Serotonin 5-HT2A receptor binding assay ([3H]-ketanserin)
# assay.context: 10 nM test drug; [3H]-ketanserin 1 nM; human 5-HT2A receptor-expressing CHO cell membrane; read-out: BINDING INHIBITION RATE (%) 5HT2A 10 nM
# Experimental: (2) Serotonin 5-HT2A Receptor Binding Assay 5-HT2A receptor binding assay was performed in reference to a method described by Hirose et al. (Japan. J. Pharmacol., 53, 321-329, 1990). […] The residual radioactivity on the glass fiber filter was measured by a liquid scintillation counter. […]
readout: inhibition at 0.01 µM (%)
One number for each entry, in %.

Some molecules with recorded inhibition at 0.01 µM:
[[record]]
smi = "O=C(/C=C/c1ccc2c(c1)OCO2)N1CCC[C@@H](CN2CCC(c3noc4cc(F)ccc34)CC2)C1"
readout = "inhibition at 0.01 µM"
result_value = 93

[[record]]
smi = "COc1ccc2[nH]c(C(=O)N3CCCC[C@H]3CCN3CCC(c4coc5cc(F)ccc45)CC3)cc2c1"
readout = "inhibition at 0.01 µM"
result_value = 95


State recorded inhibition at 0.01 µM for all listed molecules.
1. Cc1ccc2[nH]c(C(=O)N3CCOC[C@H]3CCN3CCC(c4coc5ccccc45)CC3)cc2c1
2. O=C(c1nc2cc(Cl)ccc2[nH]1)N1CCCC[C@H]1CCN1CCC(c2c[nH]c3ccccc23)CC1

1. 93
2. 91
